biological target: Nonstructural protein 1 (Influenza A virus, UniProt Q194T2); format: functional, Influenza A virus (A/California/07/2009(H1N1))
Sequence (Q194T2 whole entry): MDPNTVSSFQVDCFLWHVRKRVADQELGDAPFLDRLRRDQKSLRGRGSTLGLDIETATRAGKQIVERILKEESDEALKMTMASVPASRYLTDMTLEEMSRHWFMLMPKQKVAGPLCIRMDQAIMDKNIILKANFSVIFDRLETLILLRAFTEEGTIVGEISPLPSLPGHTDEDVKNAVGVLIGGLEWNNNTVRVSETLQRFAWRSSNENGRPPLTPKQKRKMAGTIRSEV
The source made the active and inactive calls.
Assay Readout: IC50

[
  {
    "Compound": "CN(C)c1ccc(C=c2c3ccccc3n3c2c2c([n+]3C)CCCC2)cc1",
    "Tested On": "Nonstructural protein 1 (Influenza A virus, UniProt Q194T2)",
    "Assay Readout": "IC50",
    "Result": "11 µM (active)"
  },
  {
    "Compound": "CN(C)c1ccc(/C=C/c2ccc3ccccc3[n+]2C)cc1",
    "Tested On": "Nonstructural protein 1 (Influenza A virus, UniProt Q194T2)",
    "Assay Readout": "IC50",
    "Result": "14.3 µM (active)"
  },
  {
    "Compound": "NC(=O)NC(=O)CC1SC(NN=C2CSC(=O)N2)=NC1=O (centres undefined)",
    "Tested On": "Nonstructural protein 1 (Influenza A virus, UniProt Q194T2)",
    "Assay Readout": "IC50",
    "Result": "7.54 µM (active)"
  },
  {
    "Compound": "Cc1ccccc1Nc1c(-c2ccccn2)nc2ccccn12",
    "Tested On": "Nonstructural protein 1 (Influenza A virus, UniProt Q194T2)",
    "Assay Readout": "IC50",
    "Result": "14.7 µM (active)"
  },
  {
    "Compound": "O=C(CN1C(=O)CCC1=O)Nc1nc(-c2ccccn2)cs1",
    "Tested On": "Nonstructural protein 1 (Influenza A virus, UniProt Q194T2)",
    "Assay Readout": "IC50",
    "Result": "4.83 µM (active)"
  },
  {
    "Compound": "CN(C)/C=C/C=C/C=C/C1=[N+](C)c2ccccc2C1(C)C",
    "Tested On": "Nonstructural protein 1 (Influenza A virus, UniProt Q194T2)",
    "Assay Readout": "IC50",
    "Result": "5.75 µM (active)"
  },
  {
    "Compound": "CCCCC(=O)NN/C=C1\\C(=O)NC(=O)N(Cc2ccco2)C1=O",
    "Tested On": "Nonstructural protein 1 (Influenza A virus, UniProt Q194T2)",
    "Assay Readout": "IC50",
    "Result": "13.7 µM (active)"
  },
  {
    "Compound": "O=C(NC(=S)NNC(=O)c1ccccc1O)c1ccccc1",
    "Tested On": "Nonstructural protein 1 (Influenza A virus, UniProt Q194T2)",
    "Assay Readout": "IC50",
    "Result": "14.2 µM (active)"
  },
  {
    "Compound": "O=C(N/N=C/c1ccccc1O)C1SCCCS1",
    "Tested On": "Nonstructural protein 1 (Influenza A virus, UniProt Q194T2)",
    "Assay Readout": "IC50",
    "Result": "35.6 µM (active)"
  }
]
